endpoint: glass transition temperature (°C)

Reference set (5 entries):
compound	reported_result
*c1ccc2nc(-c3ccc4c(c3)C(=O)N(c3cc(C(*)(C(F)(F)F)C(F)(F)F)ccc3O)C4=O)oc2c1 (repeat unit)	329.00
*CC(=O)Nc1ccc(Oc2cccc(Oc3ccc(NC(=O)CN4C(=O)c5ccc(C(c6ccc7c(c6)C(=O)N(*)C7=O)(C(F)(F)F)C(F)(F)F)cc5C4=O)cc3)c2)cc1 (repeat unit)	221.00
*c1ccc(Nc2nc(Nc3ccc(-c4nc5cc(-c6ccc7[nH]c(*)nc7c6)ccc5[nH]4)cc3)nc(N(c3ccccc3)c3ccccc3)n2)cc1 (repeat unit)	329.00
*CC(*)(C)C(=O)OC1CCOCC1 (repeat unit)	153.50
*c1ccc(OCC2CCC(COc3ccc(-n4c(=O)c5cc6c(=O)n(*)c(=O)c6cc5c4=O)cc3)CC2)cc1 (repeat unit)	306.70

I = *CCCC1(CCCNC(=O)CCCCC(=O)N*)c2ccccc2-c2ccccc21 (repeat unit)
II = *Oc1ccc(NC(=O)c2ccc(C(=O)Nc3ccc(OC4COC5C(*)COC45)cc3)cc2)cc1 (repeat unit)
Would you let me know which has the greater glass transition temperature value, I or II ? Select an item and report its label.
I
(I: 120.00 °C, II: 57.00 °C)

---

endpoint: glass transition temperature (°C)

Reference set (5 entries):
compound	glass transition temperature [°C]
*Cc1ccccc1CN(CC)c1ccc(/C=C(\C#N)C(=O)Nc2cccc(NC(=O)/C(C#N)=C/c3ccc(N(*)CC)cc3)c2)cc1 (repeat unit)	188.00
*C(=O)c1ccc2c(c1)C(=O)N(c1cc(-c3nc4ccccc4oc3=O)cc(N3C(=O)c4ccc(*)cc4C3=O)c1)C2=O (repeat unit)	95.00
*C(=O)Oc1ccc(C2(c3ccc(OC(=O)c4ccc5c(c4)C(=O)N(c4ccc(-c6ccc(N7C(=O)c8ccc(*)cc8C7=O)cc6C)c(C)c4)C5=O)cc3)CC3CC2C2CCCC32)cc1 (repeat unit)	226.00
*c1ccc(Oc2ccc(N3C(=O)c4ccc(-c5cccc6c5C(=O)N(*)C6=O)cc4C3=O)cc2)cc1 (repeat unit)	320.00
*CC(*)C(=O)OCCCCCCSCC#N (repeat unit)	-59.00

A = *c1ccc(Oc2ccc(C(c3ccc(Oc4ccc(N5C(=O)c6ccc(Oc7ccc(Sc8ccc(Oc9ccc%10c(c9)C(=O)N(*)C%10=O)cc8)cc7)cc6C5=O)cc4)cc3)(C(F)(F)F)C(F)(F)F)cc2)cc1 (repeat unit)
B = *OS(=O)(=O)c1cccc(C(=O)Oc2ccc(C(C)(C)c3ccc(*)cc3)cc2)c1 (repeat unit)
Returns: the label, A or B , whose recorded glass transition temperature is the lower number. Select an item and report its label.
B
(B: 133.00 °C, A: 217.50 °C)

---

endpoint: glass transition temperature (°C)

Reference set (3 entries):
compound	reported_result
*C(=O)Nc1ccc(Oc2ccccc2-c2ccccc2Oc2ccc(NC(=O)c3ccc4c(c3)C(=O)N(c3ccc(Oc5ccc(Oc6ccc(N7C(=O)c8ccc(*)cc8C7=O)cc6)cc5)cc3)C4=O)cc2)cc1 (repeat unit)	238.00
*c1ccc(C(c2ccccc2)(c2ccc(-c3nc4ccc(-c5ccc6nc(*)oc6c5)cc4o3)cc2)C(F)(F)F)cc1 (repeat unit)	350.00
*c1ccc2c(c1)C(=O)N(c1ccc(Oc3ccc(N4C(=O)c5ccc(C(F)(F)C(F)(F)C(F)(F)C(F)(F)C(F)(F)C(F)(F)C(F)(F)C(*)(F)F)cc5C4=O)cc3)cc1)C2=O (repeat unit)	186.00

I = *c1ccc2c(c1)C(=O)N(c1ccc(-c3ccc(Oc4ccc5c(c4)C(C)(c4ccc(Oc6ccc(-c7ccc(N8C(=O)c9ccc(C(*)(C(F)(F)F)C(F)(F)F)cc9C8=O)cc7)cc6C(F)(F)F)cc4)CC5(C)C)c(C(F)(F)F)c3)cc1)C2=O (repeat unit)
II = */C=C(/*)C(CCC)[Si](C)(C)CCCCCC (repeat unit)
Returns: the label, I or II , whose recorded glass transition temperature is the lower number. Select an item and report its label.
II

---

endpoint: glass transition temperature (°C)

molecule	units_of_measure	glass transition temperature
*CC(*)(C)C(=O)OCCN(CC)c1ccc(/N=N/c2ccc(S(C)(=O)=O)cc2)cc1 (repeat unit)	°C	144.00

I = *c1ccc2c(c1)C(=O)N(c1ccc(Oc3ccc(C(=O)c4cccc(C(=O)c5ccc(Oc6ccc(N7C(=O)c8ccc(C(*)(C(F)(F)F)C(F)(F)F)cc8C7=O)cc6)cc5)c4)cc3)cc1)C2=O (repeat unit)
II = *CCCCCCCCCCC(=O)Oc1ccc2cc(OC(=O)CCCCCCCCCCn3c(=O)c4cc5c(=O)n(*)c(=O)c5cc4c3=O)ccc2c1 (repeat unit)
Would you let me know which has the greater glass transition temperature value, I or II ? Select an item and report its label.
I
(I: 236.00 °C, II: 66.00 °C)

---

endpoint: glass transition temperature (°C)

A = *Cc1cc(CNC(=O)CCCCC(=O)N*)cc(C(C)(C)C)c1 (repeat unit)
B = *Oc1ccc(S(=O)(=O)c2ccc(Oc3c(C(C)C)cc(C(C)(C)c4cc(C(C)C)c(*)c(C(C)C)c4)cc3C(C)C)cc2)cc1 (repeat unit)
C = *c1cc(Br)c(Oc2c(Br)cc(N3C(=O)c4ccc(-c5ccc6c(c5)C(=O)N(*)C6=O)cc4C3=O)cc2Br)c(Br)c1 (repeat unit)
Rank descending by glass transition temperature. Form entry: ranked labels (order as requested).
C, B, A
(C: 287.00 °C, B: 175.00 °C, A: 109.00 °C)

1 = *CC(O)COC(=O)C1CCC(C(=O)OCC(O)COc2ccc(C3(c4ccc(O*)cc4)c4ccccc4-c4ccccc43)cc2)CC1 (repeat unit)
2 = *c1ccc(Oc2ccc(S(=O)(=O)c3ccc(Oc4ccc(-c5c6c(c(*)c7ccccc57)C(=O)N(c5ccccc5C(F)(F)F)C6=O)cc4)cc3)cc2)cc1 (repeat unit)
Would you let me know which has the greater glass transition temperature value, 1 or 2 ? Select an item and report its label.
2

A = *CCCCCCOC(=O)C(CCCCCCCCCCBr)C(=O)OCCCCCCOc1ccc(-n2on2-c2ccc(O*)cc2)cc1 (repeat unit)
B = */C=C/c1sc(-c2ccc3c(c2)C(CCCCCC)(CCCCCC)c2cc(-c4sc(/C=C/C5=CC(=C(C#N)C#N)C=C(*)O5)c(CCCCCC)c4CCCCCC)ccc2-3)c(CCCCCC)c1CCCCCC (repeat unit)
C = *Nc1ccc(NC(=O)c2cc(C(=O)c3ccc(C(=O)O)c(C(*)=O)c3)ccc2C(=O)O)cc1 (repeat unit)
D = *CC(COC(=O)O*)OCCCCOc1ccc(/C=C/c2ccc([N+](=O)[O-])cc2)cc1 (repeat unit)
In this exercise, place the 4 compounds in ascending sequence of their recorded glass transition temperature. Form entry: ranked labels (order as requested).
A, D, B, C
(A: 16.00 °C, D: 42.00 °C, B: 115.00 °C, C: 213.20 °C)

P = *Oc1ccc(C(=O)c2ccc(C(=O)c3ccc(Oc4cccc(Cc5cccc(*)c5)c4)cc3)cc2)cc1 (repeat unit)
Q = *Oc1ccc(C(=O)Nc2cc(C(c3ccc(C)c(NC(=O)c4ccc(OC(=O)c5ccc(C(*)=O)cc5)cc4)c3)(C(F)(F)F)C(F)(F)F)ccc2C)cc1 (repeat unit)
Would you let me know which has the greater glass transition temperature value, P or Q ? Select an item and report its label.
Q

---

endpoint: glass transition temperature (°C)

                                   compound                      endpoint  reported_result
0  *c1ccc(Oc2ccc(C(=O)c3cccc(C(=O)c4ccc(Oc5ccc(-c6cc(*)[nH]n6)cc5)cc4)c3)cc2)cc1 (repeat unit)  glass transition temperature           205.00
1  *Oc1ccc(S(=O)(=O)c2ccc(Oc3ccc(C(C)(C)c4ccc(*)cc4)cc3[N+](=O)[O-])cc2)cc1 (repeat unit)  glass transition temperature           190.00
2  *c1ccc(-c2cc(C(C)(C)C)c(Oc3ccc(N4C(=O)c5ccc(-c6ccc7c(c6)C(=O)N(*)C7=O)cc5C4=O)cc3)c(C(C)(C)C)c2)cc1 (repeat unit)  glass transition temperature           381.50

I = *Oc1ccc(SC(=O)Oc2ccc(C(C)(C)c3ccc(OC(=O)Sc4ccc(*)cc4)cc3)cc2)cc1 (repeat unit)
II = *CCCCCCCCCCOc1c(OC)cc(/C=C2\CCC/C(=C\c3cc(OC)c(O*)c(OC)c3)C2=O)cc1OC (repeat unit)
III = *c1cccc(N2C(=O)c3cccc(Oc4ccc(Sc5ccc(Oc6cccc7c6C(=O)N(*)C7=O)cc5)cc4)c3C2=O)c1 (repeat unit)
Sort by glass transition temperature, descending. Form entry: ranked labels (order as requested).
III, I, II
(III: 231.00 °C, I: 145.00 °C, II: 49.00 °C)

I = *Oc1ccc(CC(NC(=O)CCc2ccc(OC(=O)COCCOCC(*)=O)cc2)C(=O)OC)cc1 (repeat unit)
II = *Nc1ccc(NC(=O)c2ccc(NC(=O)CCCCCCCCCCC(=O)Nc3ccc(C(*)=O)cc3)cc2)cc1C(=O)OCCCCCCCCCCCCCC (repeat unit)
Would you let me know which has the greater glass transition temperature value, I or II ? Select an item and report its label.
II
